assay: Selectivity index, ratio of CC50 for cytotoxicity against African green monkey Vero cells to EC50 for antiviral activity against Chikungunya virus infected in African green monkey Vero cells assessed as reduction in viral induced cell death; assay type: toxicity, cell-based; conditions: read-out: Ratio CC50/EC50
Here the recorded selectivity ratio is given for each entry.
Reply with the value as a number alone.

[[record]]
chem_smiles = "CCNc1cc(C)nc(N2CCN(C(=O)C3CCCCC3)CC2)n1"
data_value = 2.1

[[record]]
chem_smiles = "CCNc1cc(C)nc(N2CCN(S(=O)(=O)c3cccs3)CC2)n1"
data_value = 1.8

[[record]]
chem_smiles = "Cc1cc(N2CCN(C(=O)c3cc(Cl)cc(Cl)c3)CC2)nc(N(C)C)n1"
data_value = 15

[[record]]
chem_smiles = "CCNc1nc(C)cc(N2CC3CCC(C2)N3C(=O)c2ccc(Cl)cc2)n1"
data_value = 5

[[record]]
chem_smiles = "CCNc1nc(C)cc(N2CCN(C(=O)c3ccc(F)cc3)CC2)n1"
data_value = 109

[[record]]
chem_smiles = "CNc1nc(C)cc(N2CCN(S(=O)(=O)c3ccc(F)cc3)CC2)n1"
data_value = 9.2

[[record]]
chem_smiles = "CNc1ccnc(N2CCN(S(=O)(=O)c3ccc(F)cc3)CC2)n1"
data_value = 20

[[record]]
chem_smiles = "CCNc1ccnc(N2CCN(S(=O)(=O)c3ccc(Cl)cc3)CC2)n1"
data_value = 2.7

[[record]]
chem_smiles = "CCNc1ccnc(N2CCN(C(=O)c3ccc(Cl)cc3)CC2)n1"
data_value = 3.1

[[record]]
chem_smiles = "CCNc1nc(C)cc(N2CCN(S(=O)(=O)c3ccc(Cl)cc3)CC2)n1"
data_value = 3.9


Recorded selectivity ratio of "CCNc1cc(C)nc(N2CCN(S(=O)(=O)c3ccc(Cl)nc3)CC2)n1" , please.
0.8

Would you kindly repeat that for "CCNc1nc(C)cc(N2CCN(C(=O)c3ccc(C(C)(C)C)cc3)CC2)n1" ?
19

Would you kindly repeat that for "CCNc1nc(C)cc(N2CCN(C(=O)c3cccc(Cl)c3)CC2)n1" ?
38

* * *

tested on: Caco-2; assay: Induction of apoptosis in human Caco-2 cells assessed as increase in PARP expression at 6.25 to 100 uM incubated for 72 hrs by Western blot analysis; type: toxicity, cell-based; conditions: caco-2, 72 h, dose 6.25-100 µM
QUANTITY_NAME: Activity

[[record]]
chem_smiles = "CCNc1nc(C)cc(N2CCN(C(=O)c3cc(Cl)cc(Cl)c3)CC2)n1"
data_value = "Non-Toxic"

[[record]]
chem_smiles = "CCNc1nc(C)cc(N2CCN(C(=O)c3cccc([N+](=O)[O-])c3)CC2)n1"
data_value = "Non-Toxic"

[[record]]
chem_smiles = "CCNc1nc(C)cc(N2CCN(C(=O)c3ccc(I)cc3)CC2)n1"
data_value = "Non-Toxic"

[[record]]
chem_smiles = "CCNc1nc(C)cc(N2CCN(C(=O)c3ccc(Cl)c(Cl)c3)CC2)n1"
data_value = "Non-Toxic"

[[record]]
chem_smiles = "CCNc1nc(C)cc(N2CCN(C(=O)c3ccc([N+](=O)[O-])cc3Cl)CC2)n1"
data_value = "Non-Toxic"


Recorded Activity of "CCNc1nc(C)cc(N2CCN(C(=O)c3cccc(Br)c3)CC2)n1" , please.
Non-Toxic

Would you kindly repeat that for "CCNc1nc(C)cc(N2CCN(C(=O)c3ccc(OC)cc3)CC2)n1" ?
Non-Toxic

Would you kindly repeat that for "CCNc1nc(C)cc(N2CCN(C(=O)c3ccc([N+](=O)[O-])cc3)CC2)n1" ?
Non-Toxic

Would you kindly repeat that for "CCNc1nc(C)cc(N2CCN(C(=O)c3ccc(F)cc3)CC2)n1" ?
Non-Toxic

Would you kindly repeat that for "CCNc1nc(C)cc(N2CCN(C(=O)c3ccc(Br)cc3)CC2)n1" ?
Non-Toxic

* * *

experiment: Aqueous solubility of compound at pH 7.4 by HPLC analysis; type: physicochemical
Is solubility at least 50 µM? Then condition met. If not, condition not met.

For orientation, consider the following solved cases.
[[record]]
molecule = "CCNc1cc(N2CCN(S(=O)(=O)c3ccc(Cl)cc3)CC2)ncn1"
label = "condition met"

[[record]]
molecule = "CCNc1cc(C)nc(N2CCN(C(=O)C3CCCCC3)CC2)n1"
label = "condition met"

[[record]]
molecule = "CCNc1nc(C)cc(N2CCN(C(=O)c3cccc(C(F)(F)F)c3)CC2)n1"
label = "condition met"


Turning now to a further molecule:
Check this molecule for solubility at or above 50 µM: "CCNc1nc(C)cc(N2CCN(C(=O)c3cccc(Br)c3)CC2)n1"
condition met

* * *

experiment: Selectivity index, ratio of CC50 for cytotoxicity against African green monkey Vero cells to EC50 for antiviral activity against Chikungunya virus infected in African green monkey Vero cells assessed as reduction in viral induced cell death; format: toxicity, cell-based; settings: read-out: Ratio CC50/EC50
Here the recorded selectivity ratio is given for each entry.
Reply with the value as a number alone.

[[record]]
compound = "CCNc1nc(C)cc(N2CC3CN(C(=O)c4ccc(Cl)cc4)CC3C2)n1 (stereo unspecified)"
quantity_name = "selectivity ratio"
data_value = 23

[[record]]
compound = "Cc1cc(N2CCN(C(=O)c3ccc(Cl)cc3)CC2)nc(NC(C)C)n1"
quantity_name = "selectivity ratio"
data_value = 2.6

[[record]]
compound = "Cc1cc(N2CCN(S(=O)(=O)c3ccc(Cl)cc3)CC2)nc(NC(C)C)n1"
quantity_name = "selectivity ratio"
data_value = 4.9

[[record]]
compound = "CCNc1cc(C)nc(NC2CCN(C(=O)c3cc(Cl)cc(Cl)c3)CC2)n1"
quantity_name = "selectivity ratio"
data_value = 2.02


Below: the item to evaluate.
Recorded selectivity ratio of "CCNc1cc(C)nc(N2CCN(C(=O)c3ccc(Cl)cc3)CC2)n1" , please.
37

* * *

assay: Aqueous solubility of compound at pH 7.4 by HPLC analysis; assay type: physicochemical
Is solubility at least 100 µM? Then fulfilled. If not, not fulfilled.

For orientation, consider the following solved cases.
[[record]]
chem_smiles = "O=C(c1cc(Cl)cc(Cl)c1)N1CCN(c2nc(Cl)nc3[nH]cnc23)CC1"
label = "not fulfilled"

[[record]]
chem_smiles = "CCNc1nc(C)cc(N2CCN(C(=O)c3ccc(C)cc3)CC2)n1"
label = "fulfilled"

[[record]]
chem_smiles = "Cc1cc(N2CCN(C(=O)c3cc(Cl)cc(Cl)c3)CC2)nc(N(C)C)n1"
label = "fulfilled"

[[record]]
chem_smiles = "CCNc1cc(C)nc(NC2CCN(C(=O)c3cc(Cl)cc(Cl)c3)CC2)n1"
label = "not fulfilled"

[[record]]
chem_smiles = "Cc1nc(Cl)c(N)c(N2CCN(C(=O)c3ccc(Cl)c(Cl)c3)CC2)n1"
label = "fulfilled"

[[record]]
chem_smiles = "Cc1nc(N2CCN(C(=O)c3ccc(Cl)cc3)CC2)c2nc[nH]c2n1"
label = "not fulfilled"


Check this compound for solubility at or above 100 µM: "CCNc1cc(C)nc(N2CCN(C(=O)c3ccc(I)cc3)CC2)n1"
fulfilled

Would you kindly repeat that for "CCNc1nc(C)cc(N2CCN(S(=O)(=O)c3ccc(Cl)cc3)CC2)n1" ?
fulfilled

Would you kindly repeat that for "Cc1nc(N2CCN(C(=O)c3cc(Cl)cc(Cl)c3)CC2)c2nc[nH]c2n1" ?
not fulfilled

* * *

assay: Cytotoxicity against African green monkey Vero cells assessed as reduction in overall metabolic activity incubated for 5 days by MTS reagent based absorbance method; type: toxicity, cell-based; conditions: chlorocebus sabaeus, time 5 day
QUANTITY_NAME: CC50 at 120 h (µM)
Just the number in µM, nothing appended.

Recorded CC50 at 120 h of "CCNc1cc(C)nc(N2CCN(C(=O)c3ccc(Cl)cc3)CC2)n1" , please.
89

Would you kindly repeat that for "CCNc1nc(C)cc(N2CCN(C(=O)c3ccc(C(C)(C)C)cc3)CC2)n1" ?
45

Would you kindly repeat that for "CCNc1ccnc(N2CCN(C(=O)c3ccc(F)cc3)CC2)n1" ?
183

Would you kindly repeat that for "CCNc1nc(C)cc(N2CCN(C(=O)c3ccc(C)cc3)CC2)n1" ?
203

Would you kindly repeat that for "Cc1cc(N(C)C)nc(N2CCN(C(=O)c3ccc(Br)cc3)CC2)n1" ?
76

Would you kindly repeat that for "CCNc1nc(C)cc(NC2CCN(C(=O)c3cc(Cl)cc(Cl)c3)CC2)n1" ?
47

Would you kindly repeat that for "CCNc1nc(C)cc(N2CCN(C(=O)c3ccc(Cl)c(Cl)c3)CC2)n1" ?
46

Would you kindly repeat that for "CCNc1cc(C)nc(N2CCN(C(=O)C3CCCCC3)CC2)n1" ?
147

Would you kindly repeat that for "CCNc1cc(C)nc(N2CCN(S(=O)(=O)c3cccs3)CC2)n1" ?
180

Would you kindly repeat that for "CCNc1cc(C)nc(NC2CCN(C(=O)c3cc(Cl)cc(Cl)c3)CC2)n1" ?
25

Would you kindly repeat that for "CNc1ccnc(N2CCN(S(=O)(=O)c3ccc(F)cc3)CC2)n1" ?
193

Would you kindly repeat that for "CCNc1nc(C)cc(N2CCN(C(=O)c3ccc(F)cc3)CC2)n1" ?
165

Would you kindly repeat that for CCNc1cc(C)nc(N2CCCC(NC(=O)c3cc(Cl)cc(Cl)c3)C2)n1 (stereo not drawn) ?
49

Would you kindly repeat that for "CCNc1nc(C)cc(N2CCN(Cc3ccc(F)cc3)CC2)n1" ?
46

Just for reference, ChEMBL document CHEMBL5537149 is where these values come from.
